# Test system: PRKACA-PRKAR2A interaction (SmBiT-PRKACA / LgBiT-PRKAR2A), protein kinase A
# Parameters: NanoLuc complementation counter-screen in cell extract, PRKACA with PRKAR2A, loss of luminescence, detects NanoLuc interference
# Run parameters: counter-screen for NanoLuc interference; 0.5 h, 20 µM; inhibitor
Threshold rule: Inh (PKA) greater than or equal to 30% is Yes; below that, No.

# bool: Inh (PKA) of Cc1cc([N+](=O)[O-])ccc1NS(=O)(=O)c1cc(Cl)ccc1Cl >= 30%
Yes

Continue with Cc1ccc(C(=O)N(CCCN)[C@@H](c2oc3cc(Cl)ccc3c(=O)c2Cc2ccccc2)C(C)C)cc1
No

Continue with COc1ccc(C(Cl)=C(c2ccc(OC)cc2)c2ccc(OC)cc2)cc1
No

Continue with CC(C(=O)O)c1ccc(-c2ccccc2)c(F)c1 (stereo not shown)
No

Continue with C/C=C1\[C@H]2C=C(C)C[C@]1(N)c1ccc(=O)[nH]c1C2 [UM0133189:02, (-)-Huperzine A]
No

Continue with CC(=O)O[C@]1(C(C)=O)CC[C@H]2[C@@H]3C[C@H](C)C4=CC(=O)CC[C@]4(C)[C@H]3CC[C@@]21C [UM0142284:01, Medroxyprogesterone acetate]
No
